Provenance of the data: the NIST ThermoML archive (doi:10.1007/s10765-005-5570-x)

- test conditions: 298.15 K; 101.33 kPa; Liquid
mass density strictly under 1000 kg/m3 means Satisfied; at 1000 kg/m3 or over means Not satisfied.

                          molecule  assigned_class
0      ClCCCl [1,2-dichloroethane]   Not satisfied
1       ClCBr [bromochloromethane]   Not satisfied
2           BrCBr [dibromomethane]   Not satisfied
3  ClCCBr [1-bromo-2-chloroethane]   Not satisfied
4        CCOC(C)=O [ethyl acetate]       Satisfied

###

Recorded mass density for the following compounds
- assay explanation: xn = mol fraction of the nth substance listed
- test conditions: 298.15 K; 200 kPa; Liquid; x1 = 0.5013
± gives the expanded uncertainty stated by the source.
measure: mass density

>>> df
                                   compound           data_value
0    ClCBr [bromochloromethane] + CCOC(C)=O    1299.53 ± 1 kg/m3
1  ClCCBr [1-bromo-2-chloroethane] + CCOC(C)=O  1278.27 ± 1.2 kg/m3
2        BrCBr [dibromomethane] + CCOC(C)=O  1549.45 ± 1.7 kg/m3
3   ClCCCl [1,2-dichloroethane] + CCOC(C)=O  1046.97 ± 0.4 kg/m3
